ASSAY EXPLANATION: Quantitative High-Throughput drug screen in 47 multiple myeloma cell lines against the NCATS MIPE library collection: KHM11_PLB cell viability assay (AID 1918962); note: nearly all actives have a fitted effect of over 35% in size
TEST CONDITIONS: KHM11 myeloma cell viability, CellTiter-Glo ATP luminescence, 48 h; series mostly up to 45.8 µM
Records with an inconclusive call do not appear. The source made the active and inactive calls. Calls come from the whole dose curve; as a rule, active = well fitted cell-killing curve with a large enough effect; inconclusive = small, poorly fitted or top-dose-only effect, or effect the other way; inactive = no such curve, though single readings can be large or run the other way.
Your reply should match one of these outcome classes. T (active), F (inactive)

COMPOUND | CLASSIFICATION
C=C[C@@H]1CN2CCC1C[C@@H]2C(O)c1ccnc2ccc(OC)cc12 (stereo not given in full) | F
C[C@]12CCC3=C4CCC(=O)C=C4CC[C@@H]3[C@H]1CC[C@@]2(O)CC#N | F
O=C(c1ccc(C(=O)N2CCC(N3CCCC3)CC2)c(Nc2ccccc2)c1)N1CCC(N2CCCC2)CC1 | F
Cc1ccc(NC(=O)Nc2cc(C(F)(F)F)ccc2F)cc1Nc1ccc2c(c1)NC(=O)C2=Cc1ccc[nH]1 | T

GET /call?item= Cc1csc(-c2nnc(Nc3ccc(Oc4ncccc4-c4ccnc(N)n4)cc3)c3ccccc23)c1 returns the recorded outcome of this test.
T
